The measured values listed here are drawn from patent US20050282910A1.

- System: HL60/adr
- Measurement description: Reversal of MRP1-mediated drug resistance, MTT cytotoxicity of anticancer agents
- Type: cell-based, human
- Condition notes: HL60/adr; anticancer agent in the presence of Schisandrin B (10 μg/ml); 72 hours
Readout: IC50 (ng/ml) +Schisandrin B

Report IC50 (ng/ml) +Schisandrin B for every entry below.
1. O=C1c2c(O)ccc(O)c2C(=O)c2c(NCCNCCO)ccc(NCCNCCO)c21
2. CC(=O)O[C@H]1C(=O)[C@@]2(C)[C@H]([C@H](OC(=O)c3ccccc3)[C@]3(O)C[C@H](OC(=O)[C@H](O)[C@@H](NC(=O)c4ccccc4)c4ccccc4)C(C)=C1C3(C)C)[C@]1(OC(C)=O)CO[C@@H]1C[C@@H]2O
3. COc1cc([C@@H]2c3cc4c(cc3[C@@H](O[C@@H]3O[C@@H]5CO[C@@H](C)O[C@H]5[C@H](O)[C@H]3O)[C@H]3COC(=O)[C@H]23)OCO4)cc(OC)c1O
4. CC[C@]1(O)C[C@H]2CN(CCc3c([nH]c4ccccc34)[C@@](C(=O)OC)(c3cc4c(cc3OC)N(C=O)[C@H]3[C@@](O)(C(=O)OC)[C@H](OC(C)=O)[C@]5(CC)C=CCN6CC[C@]43[C@@H]65)C2)C1

## Result
<1 ng/mL
<1 ng/mL
1490 ± 213 ng/mL
<1 ng/mL

====

- Test system: HL60/adr
- Measurement description: Reversal of MRP1-mediated drug resistance, MTT cytotoxicity of anticancer agents
- Assay type: cell-based, human
- Condition notes: HL60/adr; by Schisandrin B (10 μg/ml)
Readout: RF (reversal folds of drug resistance)

Worked examples, 3 compounds total:
compound="CC[C@]1(O)C[C@H]2CN(CCc3c([nH]c4ccccc34)[C@@](C(=O)OC)(c3cc4c(cc3OC)N(C=O)[C@H]3[C@@](O)(C(=O)OC)[C@H](OC(C)=O)[C@]5(CC)C=CCN6CC[C@]43[C@@H]65)C2)C1 [Vincristine]" result=>48
compound="COc1cc([C@@H]2c3cc4c(cc3[C@@H](O[C@@H]3O[C@@H]5CO[C@@H](C)O[C@H]5[C@H](O)[C@H]3O)[C@H]3COC(=O)[C@H]23)OCO4)cc(OC)c1O [VP-16]" result=>6.7
compound="O=C1c2c(O)ccc(O)c2C(=O)c2c(NCCNCCO)ccc(NCCNCCO)c21 [Mitoxantrone]" result=>68

Field: next compound
## Task Kindly indicate its recorded RF (reversal folds of drug resistance). Item: CC(=O)O[C@H]1C(=O)[C@@]2(C)[C@H]([C@H](OC(=O)c3ccccc3)[C@]3(O)C[C@H](OC(=O)[C@H](O)[C@@H](NC(=O)c4ccccc4)c4ccccc4)C(C)=C1C3(C)C)[C@]1(OC(C)=O)CO[C@@H]1C[C@@H]2O [Taxol]
## Result >3
